This section presents compounds with their documented TGI values.
System: HT29 colon
Experiment: NCI tumour cell line growth inhibition, 48 h
Property label: TGI

Compound	Property label	Meas value
CCOC(=O)C12OC(OCC)(CC1(OCC)OCC)C1(CC1)C2=O (stereo unspecified)	TGI	> 100 µM
O=c1[nH]c(=O)n(C2COC(CO)C2O)cc1F (stereo unspecified)	TGI	> 100 µM
N#CC(C(=O)CCC(=O)Nc1ccc(Cl)c(Cl)c1)c1ccccc1 (stereo unspecified)	TGI	> 100 µM
COCOC1/C=C/CCCCC(=O)C(C)C#CC1 (stereo unspecified)	TGI	8.28 µM
CC(=O)OCc1ccc2c(c1)C(O)NC(=O)O2 (stereo unspecified)	TGI	> 100 µM
CCOC(=O)c1nnn(CCCCO)c1C(=O)OCC	TGI	> 100 µM
